Recorded values, source ChEMBL document CHEMBL5724801.

// reported Population Hoechst High Intensity Objects (%) for each item listed
# System: U2OS
# Assay Details: Multiplex assay against U2OS
# Assay type: toxicity, cell-based
# Recorded Conditions: human, 12 h, 1 µM, compound concentration 1 uM

Compound: CC[C@H](Nc1ncnc2[nH]cnc12)c1nc2cccc(F)c2c(=O)n1-c1ccccc1
Result: 0%
--
Compound: Cl.Cl.N#Cc1ccc(O[C@@H]2c3ccccc3C[C@H]2N2CCC[C@@H](N)C2)c(Cl)c1
Result: 0%
--
Compound: c1ccc2nc(N3CCNCC3)ccc2c1
Result: 0%

Tell me Population Hoechst High Intensity Objects (%) reported for COc1cc2ncnc(Nc3ccc(Oc4ccccc4)cc3C)c2cc1OC.Cl
0%

Identify Population Hoechst High Intensity Objects (%) associated with the compound O=C(Nc1ccccc1Cl)c1cnc2ccc(C3CCNCC3)cn12.O=C(O)C(=O)O
0%

* * *

Recorded Population Normal (%) by entry
# Tested on: U2OS
# Assay Details: Multiplex assay against U2OS
# Type: toxicity, cell-based
# Recorded Conditions: human, 24 h, 1 µM, compound concentration 1 uM
Return type: number; implicit unit %.

Solved cases (2 shown):
Molecule: CNC[C@H](O)c1ccc(O)c(O)c1 [EPINEPHRINE]
Property Measured: Population Normal (%)
Quantitative Result: 97
//
Molecule: C=C(C)[C@H]1CN[C@H](C(=O)O)[C@H]1CC(=O)O
Property Measured: Population Normal (%)
Quantitative Result: 100

Please examine the following record next.
Please list Population Normal (%) recorded for the molecule COc1ccc2nc3ccc(OC)cc3c(SCCCN)c2c1.Cl
100

* * *

# Tested on: Fibroblast
# Assay Details: Multiplex assay against human fibroblast
# Assay type: toxicity, cell-based
# Recorded Conditions: 12 h, 10 µM, compound concentration 10 uM
Documented Population Normal (%) across a set of compounds
Field format: number, assumed %, no unit text.

# lookup: Fibroblast Population Normal (%), key = COc1cc2ncnc(Nc3ccc(Oc4ccccc4)cc3C)c2cc1OC.Cl
100

Consider the compound O=c1cccc2n1C[C@@H]1CNC[C@H]2C1 tested on Fibroblast; state its Population Normal (%).
100

For Fibroblast, give the measured Population Normal (%) of the entry CC(C)Oc1ccc(F)c(-c2cnc(N)c(C(=O)Nc3cnccc3N3CCC[C@@H](C(=O)O)C3)n2)c1
100

Provide the reported Population Normal (%) (system: Fibroblast) for c1ccc2nc(N3CCNCC3)ccc2c1
100

# return Population Normal (%) for Cl.Cl.N#Cc1ccc(O[C@@H]2c3ccccc3C[C@H]2N2CCC[C@@H](N)C2)c(Cl)c1 , test system: Fibroblast
100

Fill in: Population Normal (%) on Fibroblast, entry O=C1NCc2ccc3c(-c4cccc(Cl)c4)c[nH]c3c21
100

Provide the reported Population Normal (%) (system: Fibroblast) for O=C(O)c1cc2ccccc2c(Cc2c(O)c(C(=O)O)cc3ccccc23)c1O
95

Provide Population Normal (%), system Fibroblast, entry CCN1CCN(Cc2ccc(Nc3ncc(F)c(-c4cc(F)c5nc(C)n(C(C)C)c5c4)n3)nc2)CC1.CS(=O)(=O)O
100

Return reported Population Normal (%) for target or system Fibroblast, item CN1CCC(C(=O)c2cccc(NC(=O)c3c(F)cc(F)cc3F)n2)CC1 .
95

* * *

Measured Population Normal (%) accompanies every entry in the list below.
# Test system: HEK-293T
# Assay Details: Multiplex assay against HEK293T
# Assay type: toxicity, cell-based
# Recorded Conditions: human, 24 h, 1 µM, compound concentration 1 uM
Write it as a number; the unit % goes unstated.

Compound: O=C1N=C(NCc2cccs2)S/C1=C\c1ccc2ncccc2c1
Quantitative Result: 100
--
Compound: C=C(C)[C@H]1CN[C@H](C(=O)O)[C@H]1CC(=O)O [KAINIC ACID]
Quantitative Result: 100
--
Compound: CC(C)Oc1ccc(F)c(-c2cnc(N)c(C(=O)Nc3cnccc3N3CCC[C@@H](C(=O)O)C3)n2)c1
Quantitative Result: 100

Answer with the recorded Population Normal (%) for the compound listed here: CC[C@H](Nc1ncnc2[nH]cnc12)c1nc2cccc(F)c2c(=O)n1-c1ccccc1 [IDELALISIB]
100

Fill in Population Normal (%) for record O=C(O)c1cc2ccccc2c(Cc2c(O)c(C(=O)O)cc3ccccc23)c1O [PAMOIC ACID]
93

Annotate the compound O=S(=O)(c1ccccc1)c1cnc2c(N3CCNCC3)cccc2c1 [INTEPIRDINE] with its measured Population Normal (%).
94

Indicate its recorded Population Normal (%); the compound in question is COc1c(C)cc(NC(=O)c2nn(Cc3ccc(F)cc3)c3c2CN(C(=O)c2ccc[nH]2)C[C@]3(C)C(N)=O)cc1C
95

Identify the reported Population Normal (%) for the following entry. CC/C(=C(\c1ccc(O)cc1)c1ccc(OCCN(C)C)cc1)c1ccccc1 [AFIMOXIFENE]
100

Return reported Population Normal (%). Input compound: COc1cc2ncnc(Nc3ccc(Oc4ccccc4)cc3C)c2cc1OC.Cl
100
